# Kd listing for each entry below
# TARGET_OF_ASSAY: T1, GbpC (glucan-binding protein C), extracellular fragment (Streptococcus mutans, UniProt Q8DTF1 111-522)
# T1 sequence: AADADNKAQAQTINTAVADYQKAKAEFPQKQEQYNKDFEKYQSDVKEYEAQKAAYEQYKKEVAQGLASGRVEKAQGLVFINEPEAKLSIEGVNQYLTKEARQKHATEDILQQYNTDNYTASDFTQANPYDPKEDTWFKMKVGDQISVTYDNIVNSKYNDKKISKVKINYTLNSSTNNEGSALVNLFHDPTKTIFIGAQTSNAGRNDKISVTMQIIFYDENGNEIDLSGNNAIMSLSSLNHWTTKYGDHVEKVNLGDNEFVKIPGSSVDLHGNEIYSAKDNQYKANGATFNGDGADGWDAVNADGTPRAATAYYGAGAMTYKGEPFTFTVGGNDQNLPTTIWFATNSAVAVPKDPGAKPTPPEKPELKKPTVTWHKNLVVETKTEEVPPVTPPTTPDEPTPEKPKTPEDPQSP
# PROTOCOL_NOTES: BLI
Param answer (str): number followed by unit.

{"BINDER": "A96 (flanked) (ssDNA) DNA: AGATACCAATACGCTGCCCCGCCGGTCCCGAGCTACAACACTTTACGCCCCCCTCCCCGCCACTGGTAACGACATC", "Kd": "0.4 µM"}

Continue with the binder presented below.
Look at this binder and give its reported Kd. A39 (flanked) (ssDNA) DNA: AGATACCAATACGCTGCCTAGCCCCTACCCTGTTGCTCCCCCTCGCCCCTCTCACCCCGCCACTGGTAACGACATC 5.7 µM
